Assay: chemical genetic growth profiling, strain panel (AID 1159580);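 further: tested at 20 µM; growth read once vehicle control cultures reached saturation at 30 °C; 1 = growth at the plate median or of vehicle wells; lower values mean less growth of the strain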
Conditions: S. cerevisiae deletion strains, growth OD, locus YAL040C, strain CLN3, active compounds read low
The whole screen tested about 5,500 compounds, of which about 2,000 (36%) were called active. Inconclusive results (about 18%) are left out. The list shows a part of the results.
The threshold is 1. Values of normalized growth beneath it are tagged condition met; values meeting or exceeding it are tagged condition not met.

O=C(O)/C(=C/c1c(C(=O)O)[nH]c2cc(Cl)cc(Cl)c12)c1ccccc1: condition not met
CCN(CC)C(=O)c1ccc(O)c(OC)c1: condition not met
c1cc(CN2CCCCC2)cc(OCCCNc2nc3ccccc3s2)c1: condition met
O=C(O)c1cc([N+](=O)[O-])ccc1NCCCc1ccccc1: condition met

---

Test: chemical genetic growth profiling, strain panel (AID 1159580)
Settings: S. cerevisiae deletion strains, growth OD, locus YNL175C, strain NOP13, active compounds read low
Hit rate of the full screen: of about 5,500 compounds, about 2,000 (36%) were called active. Inconclusive results (about 18%) are left out. The list shows a part of the results.
reported_metric: normalized growth

CC(C)C1C2CCC(C2)C1N (stereo not given): 1.02 (inactive)
C#C[C@]1(O)CC[C@H]2[C@@H]3CCC4=Cc5oncc5CC4(C)[C@H]3CCC21C (stereo not given in full): 0.917 (inactive)
CCN(CC)C(=O)c1ccc(O)c(OC)c1: 1.01 (inactive)
CCCCCCC(C)(C)c1ccc([C@@H]2C[C@H](O)CC[C@H]2CCCO)c(O)c1: 0.915 (inactive)
C[C@]12CCC(=O)C=C1CC[C@@H]1[C@@H]2[C@@H](O)C[C@@]2(C)[C@H]1CC[C@]2(O)C(=O)COC(=O)CCC(=O)O: 1.01 (inactive)

---

Assay: chemical genetic growth profiling, strain panel (AID 1159580)
Settings: S. cerevisiae deletion strains, growth OD, locus YJL129C, strain trk1, active compounds read low
Out of some 5,500 compounds screened, about 2,000 (36%) were called active. About 18% were inconclusive and are not listed. Some of the results follow. Where a SMILES comes first, the peptide text is derived from it. Side-chain parts run from the residue outwards. [ ]: non-standard residue; d: D form. The star is where a group is joined. X1 = CCC(C)C(N)C1=NC(C(=O)*)CS1; Orn = NCCC[CH](N)C(=O)O
reported_metric: normalized growth

CC(C)CC1NC(=O)C(CCCN)NC(=O)C(C(C)C)NC(=O)C2CCCN2C(=O)C(Cc2ccccc2)NC(=O)C(CC(C)C)NC(=O)C(CCCN)NC(=O)C(C(C)C)NC(=O)C2CCCN2C(=O)C(Cc2ccccc2)NC1=O (stereo unspecified) (cyclo(FPV[Orn]LFPV[Orn]L); configuration not given here): 1.01 (inactive)
CC(=O)OCC(=O)[C@@]12OC3(CCCC3)O[C@@H]1CC1C3CCC4=CC(=O)C=C[C@]4(C)[C@@]3(F)[C@@H](O)C[C@@]12C (stereo partly specified): 1.01 (inactive)
CC(=O)[C@@]1(O)CCC2C3CCC4=CC(=O)CC[C@]4(C)C3CC[C@@]21C (stereo partly specified): 0.955 (inactive)
CNS(=O)(=O)Cc1ccc2[nH]cc(CCN(C)C)c2c1: 1.07 (inactive)
CCC(C)C(N)C1=NC(C(=O)NC(CC(C)C)C(=O)NC(CCC(=O)O)C(=O)NC(C(=O)NCCCCC2NC(=O)C(CC(N)=O)NC(=O)C(CC(=O)O)NC(=O)C(Cc3cnc[nH]3)NC(=O)C(Cc3ccccc3)NC(=O)C(C(C)CC)NC(=O)C(CCCN)NC2=O)C(C)CC)CS1 (stereo not drawn) (cyclo(DNK([Ile-Glu-Leu-X1])[Orn]IFH); configuration not given here): 1.02 (inactive)
CN(C)CCc1c[nH]c2ccc(C[C@H]3COC(=O)N3)cc12: 0.988 (inactive)

---

Assay: chemical genetic growth profiling, strain panel (AID 1159580)
Conditions: S. cerevisiae deletion strains, growth OD, locus YJL187C, strain SWE1 (second series), active compounds read low
The whole screen tested about 5,500 compounds, of which about 2,000 (36%) were called active. Another 18% or so got no clear call; they are omitted. Some of the results follow. Where a SMILES comes first, the peptide text is derived from it. Bridges are numbered along the chain shown (N, C = ends). [ ]: non-standard residue; d: D form. The star is where a group is joined. Octanoyl(6-Me) = CCC(C)CCCCC(=O)*; Dab = NCC[CH](N)C(=O)O
reported_metric: normalized growth

CCC(C)CCCCC(=O)NC(CCN)C(=O)NC(C(=O)NC(CCN)C(=O)NC1CCNC(=O)C(C(C)O)NC(=O)C(CCN)NC(=O)C(CCN)NC(=O)C(CC(C)C)NC(=O)C(Cc2ccccc2)NC(=O)C(CCN)NC1=O)C(C)O (configuration not stated) ({Octanoyl(6-Me)}-[Dab]T[Dab][Dab][Dab]FL[Dab][Dab]T; lactam 4-C; configuration not given here): 1.02
Cc1onc(-c2c(Cl)cccc2Cl)c1C(=O)N[C@@H]1C(=O)N2[C@@H]1SC(C)(C)[C@@H]2C(=O)O: 1.01

---

Experiment: chemical genetic growth profiling, strain panel (AID 1159580);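 further: tested at 20 µM; growth read once vehicle control cultures reached saturation at 30 °C; 1 = growth at the plate median or of vehicle wells; lower values mean less growth of the strain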
Settings: S. cerevisiae deletion strains, growth OD, locus YDR150W, strain NUM1, active compounds read low
About 2,000 (36%) of roughly 5,500 compounds were called active. About 18% were inconclusive and are not listed. This is one part of the list.
The threshold is 1. Values of normalized growth beneath it are tagged label 1; values meeting or exceeding it are tagged label 0.

COC(=O)c1ccccc1CSc1nccc(C(F)(F)F)n1: label 1
COc1cc([N+](=O)[O-])ccc1N1CCCC1: label 1
CC(NCCC(c1ccccc1)c1ccccc1)c1ccccc1 (stereo not given): label 1
CC(C)S(=O)(=O)c1csc(C(N)=O)c1Cl: label 1
O=C(Nc1cccnc1)c1cccc(Cl)c1Cl: label 1
N#Cc1nccnc1Sc1ccc(Cl)cc1: label 0

---

Assay: chemical genetic growth profiling, strain panel (AID 1159580);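 further: tested at 20 µM; growth read once vehicle control cultures reached saturation at 30 °C; 1 = growth at the plate median or of vehicle wells; lower values mean less growth of the strain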
Settings: S. cerevisiae deletion strains, growth OD, locus YGL173C, strain kem1, active compounds read low
The campaign covered roughly 5,500 compounds. About 2,000 (36%) were called active. Roughly 18% stayed inconclusive and do not appear here. This is one part of the list.
Each item that follows carries a reported normalized growth.
reported_metric: normalized growth

NCCc1c[nH]c2ccccc12: 0.992
CC(=O)CC1CCCCN1 (stereo not drawn): 1.01
OCc1c[nH]c2ccccc12: 0.96
COc1cc2c(cc1OC)[C@@]13CCN4CC5=CCOC6CC(=O)N2C1[C@H]6[C@H]5C[C@H]43 (stereo partly drawn): 0.982
C1CCC(C(CC2CCCCN2)C2CCCCC2)CC1 (stereo not drawn): 0.962
O=c1[nH]cnc2c1ncn2C1O[C@H](CO)[C@@H](O)[C@H]1O (stereo partly drawn): 0.988
COc1ccc2c(c1)[C@]13CCCC[C@H]1[C@H](C2)N(C)CC3: 1
O=C(OC[C@H]1O[C@H](OC(=O)c2cc(O)c(O)c(OC(=O)c3cc(O)c(O)c(O)c3)c2)[C@H](OC(=O)c2cc(O)c(O)c(OC(=O)c3cc(O)c(O)c(O)c3)c2)[C@@H](OC(=O)c2cc(O)c(O)c(OC(=O)c3cc(O)c(O)c(O)c3)c2)[C@@H]1OC(=O)c1cc(O)c(O)c(OC(=O)c2cc(O)c(O)c(O)c2)c1)c1cc(O)c(O)c(OC(=O)c2cc(O)c(O)c(O)c2)c1: 0.54

---

Assay: chemical genetic growth profiling, strain panel (AID 1159580);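 further: tested at 20 µM; growth read once vehicle control cultures reached saturation at 30 °C; 1 = growth at the plate median or of vehicle wells; lower values mean less growth of the strain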
Conditions: S. cerevisiae deletion strains, growth OD, locus YNL322C, strain KRE1, active compounds read low
Screen size: about 5,500 compounds; about 2,000 (36%) were called active. About 18% were inconclusive and are not listed. The list shows a part of the results.
Each item that follows carries a reported normalized growth.
reported_metric: normalized growth

C[C@]12CCC(=O)C=C1CC[C@@H]1[C@@H]2[C@@H](O)C[C@@]2(C)[C@H]1CC[C@]2(O)C(=O)COC(=O)CCC(=O)O: 0.996
CO[C@@]1(NC(=O)Cc2cccs2)C(=O)N2C(C(=O)O)=C(COC(N)=O)CS[C@@H]21: 1.01
Cc1cc(C(C)(C)C)cc(C)c1CC1=NCCN1: 1.02
COc1c2ccoc2cc2oc(C)cc(=O)c12: 0.976
CN1CCN(CCCN2c3ccccc3Sc3ccc(C(F)(F)F)cc32)CC1: 0.0571
CN(C)S(=O)(=O)c1ccc2c(c1)/C(=C/c1cc3c([nH]1)CCCC3)C(=O)N2: 0.983
NCCc1c[nH]c2ccccc12: 0.988
NC(N)=NC(N)=Nc1ccccc1: 1
COc1ccc2c(c1OC)OC[C@@H](c1ccc(OC)c(OC)c1OC)C2: 1.01
C[C@]12Cc3cn4c(nc3C=C1CCC1C2CC[C@@]2(C)[C@H]1CC[C@@]2(O)C#N)nc1ccccc14 (stereo partly drawn): 0.938
OCCN1CCN(CC/C=C2/c3ccccc3Sc3ccc(C(F)(F)F)cc32)CC1: 0.974
Cc1ccc(=O)n(Cc2ccc(Cl)c(Cl)c2)n1: 0.988
CC(=O)[C@@]1(O)CCC2C3CCC4=CC(=O)CC[C@]4(C)C3CC[C@@]21C (stereo partly drawn): 0.994
CC(=O)C1C(=O)CC(c2ccc(Cl)cc2)CC1=O (stereo not drawn): 0.796
CSc1nc(N)nc(N2CCCCC2)n1: 1
CC(=O)c1cc2cc(Br)ccc2oc1=O: 0.964
Cc1c(NC(=O)c2cccnc2)c(=O)n(-c2ccccc2)n1C: 0.996
CNC(Cc1c[nH]c2ccccc12)C(=O)O (stereo not drawn): 0.985
Cc1cc(C(C)(C)C)c(O)c(C)c1CC1=NCCN1: 0.998
C[C@]12CCC(=O)C=C1CC[C@@H]1[C@@H]2[C@@H](O)C[C@@]2(C)[C@H]1CC[C@]2(O)C(=O)CO: 1
CC(=O)c1cc2ccccc2oc1=O: 0.99
NC(Cc1cc(O)c(O)cc1O)C(=O)O (stereo not drawn): 0.942
O=c1c(O)c(-c2ccc(O)c(O)c2)oc2cc(O)ccc12: 0.918

The values you see were collected from PubChem BioAssay AID1159580.
